Each recorded value in this set is attributed to patent US20160002357A1.

study_system: T1, P-cadherin-ECD1-3-Fc protein (human P-cadherin-Fc) (human, UniProt P22223 108-440)
T1 construct: Construct was expressed with signal peptide and pro-peptide (PACE co-transfected to process the propeptide); not shown: hinge and CH2 and CH3 domains of human IgG1
T1 sequence (P22223 108-440): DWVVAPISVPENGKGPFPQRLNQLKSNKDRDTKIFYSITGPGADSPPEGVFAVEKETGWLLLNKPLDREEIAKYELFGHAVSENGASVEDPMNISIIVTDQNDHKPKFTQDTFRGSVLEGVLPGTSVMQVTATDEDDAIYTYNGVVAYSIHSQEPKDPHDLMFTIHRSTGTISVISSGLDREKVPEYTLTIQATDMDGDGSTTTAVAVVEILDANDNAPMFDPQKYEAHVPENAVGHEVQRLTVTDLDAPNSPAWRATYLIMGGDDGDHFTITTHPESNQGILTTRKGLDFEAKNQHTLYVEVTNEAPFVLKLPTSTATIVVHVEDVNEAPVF
measurement_description: phage scFv ELISA, coated P-cadherin-ECD1-3-Fc
Give Fulfilled when the value for Human P-cadherin-Fc binding (OD450) is at least 2 OD450. Give Not fulfilled when it is less.

Solved cases below.
Asked: Form field: Human P-cadherin-Fc binding (OD450) at least 2 OD450? Entry: anti-P-cadherin scFv 153 alanine-mutant H2.8-Ala (scFv, V domains shown, scFv on phage) VH: EVQLVQSGAEVKKPGASVKVSCKASGYTFTSYGISWVRQAPGQGLEWMGWISAYNGATNYAQKLQGRVTMTTDTSTSTAYMELRSLRSDDTAVYYCATIDTANAFGIWGQGTMVTVSS VL: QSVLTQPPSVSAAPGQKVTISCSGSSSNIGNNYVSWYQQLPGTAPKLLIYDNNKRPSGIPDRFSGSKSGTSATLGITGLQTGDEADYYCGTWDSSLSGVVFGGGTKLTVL
Given back: Fulfilled

Asked: // query: anti-P-cadherin scFv 153 alanine-mutant H1.7-Ala (scFv, V domains shown, scFv on phage) VH: EVQLVQSGAEVKKPGASVKVSCKASGYTFTSAGISWVRQAPGQGLEWMGWISAYNGNTNYAQKLQGRVTMTTDTSTSTAYMELRSLRSDDTAVYYCATIDTANAFGIWGQGTMVTVSS VL: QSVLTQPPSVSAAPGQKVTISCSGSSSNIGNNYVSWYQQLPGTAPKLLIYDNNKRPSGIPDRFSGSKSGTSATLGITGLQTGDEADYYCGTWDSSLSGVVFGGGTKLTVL
Given back: Not fulfilled

Asked: // query: anti-P-cadherin scFv 153 alanine-mutant H1.1-Ala (scFv, V domains shown, scFv on phage) VH: EVQLVQSGAEVKKPGASVKVSCKASAYTFTSYGISWVRQAPGQGLEWMGWISAYNGNTNYAQKLQGRVTMTTDTSTSTAYMELRSLRSDDTAVYYCATIDTANAFGIWGQGTMVTVSS VL: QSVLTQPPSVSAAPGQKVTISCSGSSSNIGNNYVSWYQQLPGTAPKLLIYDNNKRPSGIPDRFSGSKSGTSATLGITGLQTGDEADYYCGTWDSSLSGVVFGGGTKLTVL
Given back: Not fulfilled

Now take the following binder into account.
Asked: Form field: Human P-cadherin-Fc binding (OD450) at least 2 OD450? Entry: anti-P-cadherin scFv 153 alanine-mutant H2.5-Ala (scFv, V domains shown, scFv on phage) VH: EVQLVQSGAEVKKPGASVKVSCKASGYTFTSYGISWVRQAPGQGLEWMGWISAANGNTNYAQKLQGRVTMTTDTSTSTAYMELRSLRSDDTAVYYCATIDTANAFGIWGQGTMVTVSS VL: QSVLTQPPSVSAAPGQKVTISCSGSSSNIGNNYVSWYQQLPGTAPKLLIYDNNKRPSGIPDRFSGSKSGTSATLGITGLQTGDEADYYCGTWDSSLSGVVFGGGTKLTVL
Given back: Not fulfilled
